# Tested on: hLiMTs
# procedureDetails: Combined HCI (HCS) and cellular ATP 3D assay in hLiMTs
# condition: Homo sapiens, read-out: ATP endpoint AC50
AC50 strictly less than 30 µM = True. Otherwise False.

# molecule, assayedSystem, assignedClass
data = [
    ("O=c1[nH]c(=O)n([C@@H]2O[C@H](CO)[C@@H](O)[C@@H]2F)cc1I", "hLiMTs", "True"),
    ("O=C1CN(/N=C/c2ccc([N+](=O)[O-])o2)C(=O)N1 [nitrofurantoin, reference compound]", "hLiMTs", "True"),
    ("NC(=O)N1c2ccccc2C=Cc2ccccc21 [carbamazepine, reference compound]", "hLiMTs", "False"),
]

**Query** AC50 strictly < 30 µM for this molecule? `CC(=O)Oc1ccccc1C(=O)O`
**Result** False

**Query** AC50 strictly < 30 µM for this molecule? `CCN(CC)C(=O)/C(C#N)=C/c1cc(O)c(O)c([N+](=O)[O-])c1`
**Result** False

**Query** AC50 strictly < 30 µM for this molecule? `Cn1cnc([N+](=O)[O-])c1Sc1ncnc2nc[nH]c12`
**Result** True

**Query** AC50 strictly < 30 µM for this molecule? `CO[C@@]12[C@H](COC(N)=O)C3=C(C(=O)C(C)=C(N)C3=O)N1C[C@@H]1N[C@@H]12`
**Result** True

**Query** AC50 strictly < 30 µM for this molecule? Cc1c(-c2ccccc2)oc2c(C(=O)OCCN3CCCCC3)cccc2c1=O [flavoxate]
**Result** False

**Query** AC50 strictly < 30 µM for this molecule? CC(=O)N1CCN(c2ccc(OCC3COC(Cn4ccnc4)(c4ccc(Cl)cc4Cl)O3)cc2)CC1 (stereo not shown) [ketoconazole, reference compound]
**Result** True

**Query** AC50 strictly < 30 µM for this molecule? Nc1c2c(nc3ccccc13)CCCC2 [tacrine, reference compound]
**Result** False

###

# Tested on: HepaRG spheroids
# procedureDetails: Combined HCI (HCS) and cellular ATP 3D assay in HepaRG spheroids
# condition: HepaRG; all endpoints; cut-off <100x Avg Cmaxu
measuredParameter: HepaRG <100x Avg Cmaxu All

Examples with their reported HepaRG <100x Avg Cmaxu All follow.
# compound, assayedSystem, resultValue
measured = [
    ("CN(C)C(=N)N=C(N)N", "HepaRG spheroids", "-ve"),
    ("CC(C)(C)NCC(O)COc1cccc2c1CC(O)C(O)C2 (stereo not drawn)", "HepaRG spheroids", "-ve"),
    ("NNC(=O)c1ccncc1 [isoniazid, reference compound]", "HepaRG spheroids", "+ve (<100x Avg Cmaxu)"),
    ("C#CCN(C)Cc1ccccc1", "HepaRG spheroids", "-ve"),
    ("CN(C)CCCN1c2ccccc2Sc2ccc(Cl)cc21 [chlorpromazine, reference compound]", "HepaRG spheroids", "+ve (<100x Avg Cmaxu)"),
]

Could I get HepaRG <100x Avg Cmaxu All for every one of these entries?
1. COc1ccccc1Oc1c(NS(=O)(=O)c2ccc(C(C)(C)C)cc2)nc(-c2ncccn2)nc1OCCO
2. O=C(O)Cc1ccccc1Nc1c(Cl)cccc1Cl
3. CC(=O)N1CCN(c2ccc(OCC3COC(Cn4ccnc4)(c4ccc(Cl)cc4Cl)O3)cc2)CC1 (stereo not drawn) [ketoconazole, reference compound]
4. CN(C)CCC(c1ccc(Cl)cc1)c1ccccn1 (stereo not drawn)

**Result**
1: -ve; 2: -ve; 3: +ve (<100x Avg Cmaxu); 4: -ve

###

# Tested on: hLiMTs
# procedureDetails: Combined HCI (HCS) and cellular ATP 3D assay in hLiMTs
# condition: hLiMTs; all endpoints; cut-off <10 uM
measuredParameter: hLiMTs <10 uM All

Examples with their reported hLiMTs <10 uM All follow.
# compound, assayedSystem, hLiMTs <10 uM All
rows = [
    ("CC(=O)Oc1ccccc1C(=O)O", "hLiMTs", "-ve"),
    ("N[C@@H](Cc1cc(I)c(Oc2ccc(O)c(I)c2)c(I)c1)C(=O)O", "hLiMTs", "-ve"),
    ("Cc1c(-c2ccccc2)oc2c(C(=O)OCCN3CCCCC3)cccc2c1=O [flavoxate]", "hLiMTs", "-ve"),
    ("O=C(O)Cc1ccccc1Nc1c(Cl)cccc1Cl", "hLiMTs", "-ve"),
    ("Clc1ccccc1CN1CCc2sccc2C1", "hLiMTs", "+ve (<10 uM)"),
]

Could I get hLiMTs <10 uM All for every one of these entries?
1. O=C1CN(/N=C/c2ccc([N+](=O)[O-])o2)C(=O)N1 [nitrofurantoin, reference compound]
2. CC(C)C(=O)Nc1ccc([N+](=O)[O-])c(C(F)(F)F)c1 [flutamide, reference compound]
3. CCCC(CCC)C(=O)O
4. Cc1cc2c(cc1CC(=O)c1sccc1S(=O)(=O)Nc1onc(C)c1Cl)OCO2

**Result**
1: +ve (<10 uM); 2: +ve (<10 uM); 3: -ve; 4: -ve

###

# System: HepaRG spheroids
# procedureDetails: Combined HCI (HCS) and cellular ATP 3D assay in HepaRG spheroids
# condition: HepaRG; all endpoints; cut-off <100x Avg Cmaxu

# compound, HepaRG <100x Avg Cmaxu All
records = [
    ("CCCC(CCC)C(=O)O", "+ve (<100x Avg Cmaxu)"),
    ("O=C1CC2(CCCC2)CC(=O)N1CCCCN1CCN(c2ncccn2)CC1 [buspirone, reference compound]", "-ve"),
    ("Cc1cc2c(cc1CC(=O)c1sccc1S(=O)(=O)Nc1onc(C)c1Cl)OCO2", "+ve (<100x Avg Cmaxu)"),
    ("Cc1ccc(C(=O)c2cc(O)c(O)c([N+](=O)[O-])c2)cc1 [tolcapone, reference compound]", "-ve"),
]

###

# System: hLiMTs
# condition: human
measuredParameter: hLiMTs Cmax min All

# compound, measuredParameter, resultValue
data = [
    ("CC(C)[N+](C)(CCOC(=O)C1c2ccccc2Oc2ccccc21)C(C)C [propantheline]", "hLiMTs Cmax min All", "-ve"),
    ("CO[C@@]12[C@H](COC(N)=O)C3=C(C(=O)C(C)=C(N)C3=O)N1C[C@@H]1N[C@@H]12 [mitomycin C]", "hLiMTs Cmax min All", "+ve"),
    ("O=P1(N(CCCl)CCCl)NCCCO1 (stereo not shown) [cyclophosphamide, reference compound]", "hLiMTs Cmax min All", "-ve"),
    ("Nc1c2c(nc3ccccc13)CCCC2 [tacrine, reference compound]", "hLiMTs Cmax min All", "-ve"),
]

###

# Test system: hLiMTs
# procedureDetails: Combined HCI (HCS) and cellular ATP 3D assay in hLiMTs
# condition: Microtissue model structural based (HCI); combined HCS and ATP, MEC < 25 × Cmax.tot cut-off

# molecule, DILI prediction hLiMTs (HCS-MEC)
data = [
    ("CN(C)CCC(c1ccc(Cl)cc1)c1ccccn1 (stereo not drawn) [chlorpheniramine]", "-VE"),
    ("O=C1CC2(CCCC2)CC(=O)N1CCCCN1CCN(c2ncccn2)CC1 [buspirone, reference compound]", "-VE"),
    ("NNC(=O)c1ccncc1 [isoniazid, reference compound]", "-VE"),
]

###

# Test system: HepaRG spheroids
# procedureDetails: Combined HCI (HCS) and cellular ATP 3D assay in HepaRG spheroids
# condition: HepaRG; all endpoints; Cmax min used
measuredParameter: HepaRG Cmax min All

Examples with their reported HepaRG Cmax min All follow.
# compound, resultValue
records = [
    ("CCc1ccc(CCOc2ccc(CC3SC(=O)NC3=O)cc2)nc1 (stereo not shown) [pioglitazone, reference compound]", "+ve"),
    ("CN(C)C(=N)N=C(N)N", "-ve"),
    ("CC(C)C(=O)Nc1ccc([N+](=O)[O-])c(C(F)(F)F)c1 [flutamide, reference compound]", "+ve"),
    ("N[C@@H](Cc1cc(I)c(Oc2ccc(O)c(I)c2)c(I)c1)C(=O)O", "-ve"),
]

Could I get HepaRG Cmax min All for every one of these entries?
1. C#CCN(C)Cc1ccccc1
2. CCN(CC)CCNC(=O)c1c(C)[nH]c(/C=C2\C(=O)Nc3ccc(F)cc32)c1C
3. COc1ccc2c(c1)c(CC(=O)O)c(C)n2C(=O)c1ccc(Cl)cc1

**Result**
1: -ve; 2: +ve; 3: +ve

Could I get HepaRG Cmax min All for every one of these entries?
1. Cc1c(-c2ccccc2)oc2c(C(=O)OCCN3CCCCC3)cccc2c1=O [flavoxate]
2. CCCC(CCC)C(=O)O

**Result**
1: -ve; 2: +ve

Could I get HepaRG Cmax min All for every one of these entries?
1. CN1CCN(C2=Nc3cc(Cl)ccc3Nc3ccccc32)CC1
2. Nc1cc(N2CCCCC2)nc(N)[n+]1[O-]

**Result**
["+ve", "-ve"]
